Overview of reported Time to 50% Substrate Cleavage by York PSA across a group of substances:
molecular target: free PSA (York PSA) (Homo sapiens, UniProt P07288); construct: purchased York ('York PSA'); experiment: Recognition of oligopeptide-vinca drug conjugates by free PSA (time to 50% cleavage, HPLC); format: biochemical; conditions: conjugate to PSA molar ratio 100 to 1, pH 7.4
Sequence (P07288 25-261): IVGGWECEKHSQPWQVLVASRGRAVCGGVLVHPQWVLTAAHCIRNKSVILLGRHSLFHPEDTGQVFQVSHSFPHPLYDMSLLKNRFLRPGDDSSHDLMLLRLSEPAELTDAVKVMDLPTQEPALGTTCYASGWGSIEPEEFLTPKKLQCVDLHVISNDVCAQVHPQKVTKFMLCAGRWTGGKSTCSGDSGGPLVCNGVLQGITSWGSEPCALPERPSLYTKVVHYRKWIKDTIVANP
quantity: Time to 50% Substrate Cleavage by York PSA (min)

[
  {
    "substance": "4-O-(Ac-SChgQ-SSP)-dAc-VIN: peptide-vinca drug conjugate, SEQ ID NO 116 (XXQSSP; N-acetyl; desacetylvinblastine conjugate)",
    "endpoint.result": 15
  },
  {
    "substance": "4-O-[Ac-4-trans-L-HypSSChgQSS-Pip]-dAc-VIN: peptide-vinca drug conjugate, SEQ ID NO 124 (XSSXQSSX; N-acetyl; desacetylvinblastine conjugate)",
    "endpoint.result": 13
  },
  {
    "substance": "des-Acetylvinblastine-4-O-(N-Acetyl-4-trans-L-Hyp-Ser-Ser Chg-Gln-Ser-Ser-Pro) ester acetate (XSSXQSSP; N-acetyl; desacetylvinblastine ester; acetate salt)",
    "endpoint.result": 17
  },
  {
    "substance": "4-O-((2-OH)Ac-Abu-SSChgQ-S-P)-dAc-VIN: peptide-vinca drug conjugate, SEQ ID NO 91 (XSSXQSP; N-hydroxyacetyl; desacetylvinblastine conjugate)",
    "endpoint.result": 110
  },
  {
    "substance": "4-O-(Ac-4-trans-L-HypSSChgQSS-Sar)-(dAc)-VIN: peptide-vinca drug conjugate, printed under SEQ ID NO 86 and 105 (XSSXQSSG; N-acetyl; desacetylvinblastine conjugate)",
    "endpoint.result": 32
  }
]

----------
system: LNCaP prostate tumor cells; assay: In vitro cytotoxicity, Alamar Blue assay, LNCaP cell kill; type: cell-based; conditions: 72 HRS, second part of Table 2, read-out: LNCaP Cell Kill in 72 HRS. {48 HRS} EC 50
pEC50: −log10 of the molar value.

[
  {
    "molecule": "CCC1(O)CC2CN(CCc3c([nH]c4ccccc34)C(C(=O)OC)(c3cc4c(cc3OC)N(C)C3C(O)(C(=O)OC)C(OC(=O)C(C)NC)C5(CC)C=CCN6CCC43C65)C2)C1 (stereo not drawn) [4-O-[N-Me-dA]-dAc-VIN]",
    "pEC50": 6.00
  },
  {
    "molecule": "CCC1(O)CC2CN(CCc3c([nH]c4ccccc34)C(C(=O)OC)(c3cc4c(cc3OC)N(C)C3C(O)(C(=O)OC)C(OC(=O)C(C)N)C5(CC)C=CCN6CCC43C65)C2)C1 (stereo not drawn) [(4-O-Ala)-(dAc)-VIN]",
    "pEC50": 6.22
  },
  {
    "molecule": "CC[C@]1(O)C[C@H]2CN(CCc3c([nH]c4ccccc34)[C@@](C(=O)OC)(c3cc4c(cc3OC)N(C)[C@H]3[C@@](O)(C(=O)OC)[C@H](OC(=O)[C@@H](N)CC(C)C)[C@]5(CC)C=CCN6CC[C@]43[C@@H]65)C2)C1 [4-O-leucyl-(dAc)-VIN]",
    "pEC50": 5.35
  },
  {
    "molecule": "CCC1(O)CC2CN(CCc3c([nH]c4ccccc34)C(C(=O)OC)(c3cc4c(cc3OC)N(C)C3C(O)(C(=O)OC)C(OC(=O)C(N)Cc5ccccc5)C5(CC)C=CCN6CCC43C65)C2)C1 (stereo not drawn) [(4-O-Phe)-(dAc)-VIN]",
    "pEC50": 5.42
  },
  {
    "molecule": "CCC(N)C(=O)O[C@@H]1[C@]2(CC)C=CCN3CC[C@@]4(c5cc([C@@]6(C(=O)OC)C[C@@H]7CN(CCc8c6[nH]c6ccccc86)C[C@](O)(CC)C7)c(OC)cc5N(C)[C@H]4[C@@]1(O)C(=O)OC)[C@@H]32 (stereo partly drawn) [4-O-Abu-(dAc)-VIN, I isoform]",
    "pEC50": 5.41
  },
  {
    "molecule": "CCC(N)C(=O)OC1C2(CC)C=CCN3CCC4(c5cc(C6(C(=O)OC)CC7CN(CCc8c6[nH]c6ccccc86)CC(O)(CC)C7)c(OC)cc5N(C)C4C1(O)C(=O)OC)C32 (racemic) [4-O-Abu-(dAc)-VIN, racemic mixture]",
    "pEC50": 5.42
  },
  {
    "molecule": "CCC1(O)CC2CN(CCc3c([nH]c4ccccc34)C(C(=O)OC)(c3cc4c(cc3OC)N(C)C3C(O)(C(=O)OC)C(OC(=O)C5CCCN5C(=O)C(CO)NC(=O)C(N)CO)C5(CC)C=CCN6CCC43C65)C2)C1 (stereo not drawn) [4-O-(SSP)-dAc-VIN]",
    "pEC50": 5.70
  },
  {
    "molecule": "CCC1(O)CC2CN(CCc3c([nH]c4ccccc34)C(C(=O)OC)(c3cc4c(cc3OC)N(C)C3C(O)(C(=O)OC)C(OC(=O)C5CCCN5)C5(CC)C=CCN6CCC43C65)C2)C1 (stereo not drawn) [4-O-(d)-prolyl-(dAc)-VIN ester]",
    "pEC50": 5.70
  },
  {
    "molecule": "CCC1(O)CC2CN(CCc3c([nH]c4ccccc34)C(C(=O)OC)(c3cc4c(cc3OC)N(C)C3C(O)(C(=O)OC)C(OC(=O)CO)C5(CC)C=CCN6CCC43C65)C2)C1 (stereo not drawn) [4-hydroxyacetyl-VIN]",
    "pEC50": 5.89
  }
]

Every entry's value here was drawn from patent US6174858A.
